Data origin, for the record: patent US20240043542A1

Items are presented alongside their recorded kon.
- TESTED ON: T1, mouse B7-H4 (recombinant, BLI) (mouse, UniProt Q7TSP5 29-256, limits assumed)
- T1 construct: also called murine B7-H4
- T1 sequence: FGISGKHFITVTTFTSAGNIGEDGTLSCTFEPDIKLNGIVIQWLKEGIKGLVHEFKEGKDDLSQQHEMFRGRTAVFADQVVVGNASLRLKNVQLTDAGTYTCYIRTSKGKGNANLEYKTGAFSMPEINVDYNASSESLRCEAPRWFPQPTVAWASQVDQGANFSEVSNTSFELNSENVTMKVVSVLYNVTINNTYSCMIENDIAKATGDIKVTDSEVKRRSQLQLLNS
- TEST DETAILS: BLI, antigen on Protein A tips;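 note: Anti-B7-H4 antibodies assessed for affinity toward the B7-H4 extracellular domain using biolayer interferometry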
Answer format: numeric, M⁻¹ s⁻¹ implied, no suffix.

- BINDER: "B7-H4 antibody 22216 (antibody, human IgG1, kappa, V domains shown, human IgG1/kappa) VH: QVQLQESGPGLVKPSQTLSLTCTVSGGSISDGSYYWSWIRQHPGKGLEWIGNIYYSGSTYYNPSLRSRVTMSVDTSKNQFSLKLSSVTAADTAVYYCARGLSTIDEAFDPWGQGTLVTVSS VL: DIQMTQSPSTLSASVGDRVTITCRASKSISSWLAWYQQKPGKAPKLLIYEASSLHSGVPSRFSGSGSGTEFTLTISSLQPDDFATYYCQQDNSYPYTFGGGTKVEIKR"
  kon [M⁻¹ s⁻¹]: 245000
- BINDER: "B7-H4 antibody 20500 (antibody, human IgG1, kappa, V domains shown, human IgG1/kappa) VH: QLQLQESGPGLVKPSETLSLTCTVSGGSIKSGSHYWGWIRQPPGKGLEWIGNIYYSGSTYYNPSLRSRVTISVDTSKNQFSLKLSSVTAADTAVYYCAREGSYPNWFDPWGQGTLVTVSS VL: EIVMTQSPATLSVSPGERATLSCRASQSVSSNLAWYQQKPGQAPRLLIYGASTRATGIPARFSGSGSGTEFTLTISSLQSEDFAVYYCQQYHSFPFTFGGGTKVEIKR"
  kon [M⁻¹ s⁻¹]: 408000

Let us move to another entry and its kon.
Name the reported kon value associated with the binder B7-H4 antibody 20502 (antibody, V domains shown, human IgG1/kappa) VH: QLQLQESGPGLVKPSETLSLTCTVSGGSIKSGSYYWGWIRQPPGKGLEWIGNIYYSGSTYYNPSLRSRVTISVDTSKNQFSLKLSSVTAADTAVYYCAREGSYPNQFDPWGQGTLVTVSS VL: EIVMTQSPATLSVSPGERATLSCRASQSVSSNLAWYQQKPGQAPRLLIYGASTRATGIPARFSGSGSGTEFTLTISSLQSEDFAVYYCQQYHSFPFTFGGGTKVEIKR
632000
